target: Fuc(a1-2)Gal(b1-3)[Fuc(a1-4)]GlcNAc(b1-2)Man(a1-3)[Fuc(a1-2)Gal(b1-3)[Fuc(a1-4)]GlcNAc(b1-2)Man(a1-6)]Man(b1-4)GlcNAc(b1-4)GlcNAc; assay: glycan array binding signal (z-score within array); higher = stronger binding; settings: glycan notation: IUPAC condensed, linker removed
The full list was thinned out, with the strongest signals kept by preference.
Endpoint: glycan array binding signal (z-score)
// response body must contain only the number

[in] Could you tell me which glycan array binding signal (z-score) is on file for DCL-1 (Homo sapiens), Q8IX05 (protein) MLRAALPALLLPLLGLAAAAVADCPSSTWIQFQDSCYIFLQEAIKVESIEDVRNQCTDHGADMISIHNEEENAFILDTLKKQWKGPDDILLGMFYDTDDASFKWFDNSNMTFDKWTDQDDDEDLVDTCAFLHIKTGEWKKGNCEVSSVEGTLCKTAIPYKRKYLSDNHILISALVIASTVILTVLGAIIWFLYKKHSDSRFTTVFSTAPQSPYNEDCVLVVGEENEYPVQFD ?
[out] -0.488

[in] Could you tell me which glycan array binding signal (z-score) is on file for Protectin (Homo sapiens), P13987 (protein) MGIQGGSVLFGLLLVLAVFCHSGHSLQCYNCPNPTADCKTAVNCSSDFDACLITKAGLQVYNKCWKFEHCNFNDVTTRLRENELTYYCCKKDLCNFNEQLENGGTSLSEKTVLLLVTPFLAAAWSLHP ?
[out] 3.68
